Target: NK1 (Homo sapiens, UniProt P25103)
Sequence (P25103 whole entry): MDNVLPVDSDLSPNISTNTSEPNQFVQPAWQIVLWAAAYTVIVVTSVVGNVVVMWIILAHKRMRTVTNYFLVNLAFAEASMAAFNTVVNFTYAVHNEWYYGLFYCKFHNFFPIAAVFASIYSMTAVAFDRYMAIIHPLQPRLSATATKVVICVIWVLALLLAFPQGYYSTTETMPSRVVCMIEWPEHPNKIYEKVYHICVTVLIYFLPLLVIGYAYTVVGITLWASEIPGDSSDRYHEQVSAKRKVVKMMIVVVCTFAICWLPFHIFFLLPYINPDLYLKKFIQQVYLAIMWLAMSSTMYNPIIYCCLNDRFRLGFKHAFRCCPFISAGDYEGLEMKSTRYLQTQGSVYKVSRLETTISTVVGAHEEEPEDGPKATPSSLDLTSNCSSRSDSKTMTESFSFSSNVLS
Experiment: Signal transduction (ST), intracellular Ca++ (FLIPR), NK1 antagonistic activity
Format: cell-based
Settings: read-out: pIC50 NK1 (converted)
PROPERTY: IC50
Please give the number followed by its unit.

Study these solved cases before continuing.
O=C(c1cc2ccccc2s1)N1CCC(N2CCN([C@H]3CCN(C(=O)c4cc(C(F)(F)F)cc(C(F)(F)F)c4)[C@H](Cc4ccccc4)C3)CC2)C1 (some centres unmarked) : 126 nM
O=C(c1cn[nH]c1)N1CCC(N2CCN([C@H]3CCN(C(=O)c4cc(C(F)(F)F)cc(C(F)(F)F)c4)[C@H](Cc4ccccc4)C3)CC2)C1 (some centres unmarked) : 20 nM
CC(C)(C)C(=O)N1CCCCC1C(=O)N1CCC(N2CCN([C@H]3CCN(C(=O)c4cc(C(F)(F)F)cc(C(F)(F)F)c4)[C@H](Cc4ccccc4)C3)CC2)C1 (some centres unmarked) : 6.31 nM

Problem: Assign IC50 to the following record: Cn1cccc1C(=O)N1CCC(N2CCN(C3CCN(C(=O)c4cc(C(F)(F)F)cc(C(F)(F)F)c4)C(Cc4ccc(F)c(F)c4)C3)CC2)C1 (single isomer, unassigned) [Compound 366]
Solution: 6.31 nM

Problem: Assign IC50 to the following record: O=C(c1ccccc1Cl)N1CCC(N2CCN([C@H]3CCN(C(=O)c4cc(C(F)(F)F)cc(C(F)(F)F)c4)[C@H](Cc4ccc(Cl)c(Cl)c4)C3)CC2)C1 (relative stereo)
Solution: 15.8 nM
